runDescription: Stability on keratinocyte cultures
Assay type: in vitro ADME, human
particulars: human neonatal keratinocyte culture, 2 μM, degradation kinetics over 24 hours, LC/MS/MS; read-out: half-life time (t1/2) (converted)
Recorded half-life at 2 μM values for a group of compounds are listed next.

- compound: "Cc1ncc([N+](=O)[O-])n1CCOC(=O)C(C)c1ccc(CC(C)C)cc1 (racemic) [racemic compound of formula (I)]"
  unitsLabel: "h"
  half-life at 2 μM: 3
- compound: "Cc1ncc([N+](=O)[O-])n1CCOC(=O)[C@@H](C)c1ccc(CC(C)C)cc1 [S enantiomer of the compound of formula (I)]"
  unitsLabel: "h"
  half-life at 2 μM: 20
